Where these numbers come from: ChEMBL document CHEMBL1157539

Test system: Plasmodium falciparum
measurement-protocol: GSK_TCMDC: Inhibition of Plasmodium falciparum Dd2 in whole red blood cells, using parasite LDH activity as an index of growth. Test compounds present at 2uM
Format: functional
The threshold is 60%. Values of Inhibition beneath it are tagged Y; values meeting or exceeding it are tagged N.

A selection of reference data follows.
COc1cccc(CNC[C@@H](O)[C@H](Cc2ccccc2)NC(=O)c2cc3c4c(c2)c(C(C)C)cn4CCS(=O)(=O)N3C)c1.O=CO : N
Cc1cc(-c2cccc(CNCc3ccccc3)c2)ccc1S(=O)(=O)NCCN1CCCC1.O=C(O)C(F)(F)F : Y
NC(Cc1cccc(I)c1)C(=O)NCC1CCCO1.O=C(O)C(F)(F)F (centres undefined) : Y
CC(=O)NCCNCc1cccc(C(=O)NCc2cccc(C(F)(F)F)c2)c1 : Y
CS(=O)(=O)Cc1ccc(Nc2nccc(-c3c(-c4cccc(NC(=O)c5c(F)cccc5F)c4)nn4ccccc34)n2)cc1 : N
CCCCCCCN1CC[C@@H](CCCc2ccnc3ccc(OCCCCNC(N)=O)cc23)[C@@H](CC)C1.O=C(O)C(=O)O : Y

Problem: I wonder whether `Fc1cc(Cl)ccc1Nc1ccnc2cc(-c3ccc(CN4CCOCC4)o3)ccc12` has Inhibition below 60%. Can you tell?
Solution: N

Problem: I wonder whether `COc1ccc2nc3cc(Cl)ccc3c(NCCCCN3CCNCC3)c2c1.Cl` has Inhibition below 60%. Can you tell?
Solution: N

Problem: I wonder whether `CCOc1ccc(C(=O)Nc2cc3c(c(C(F)(F)F)c2)CCNC3)cc1Cl.Cl` has Inhibition below 60%. Can you tell?
Solution: Y

====

Tested on: Plasmodium falciparum
measurement-protocol: GSK_TCMDC: Inhibition of Plasmodium falciparum 3D7 in whole red blood cells, using parasite LDH activity as an index of growth. Test compounds present at 2uM
Type: functional
recorded-metric: Inhibition (%)
Your answer should be a plain number; it is taken to be in %.

These solved cases illustrate the format of a correct answer.
COc1ccc2nccc(N3CCN(CCNCc4ccc5c(n4)NC(=O)CS5)CC3)c2n1.Cl : 100
COc1cccc2c1CCN(CCN1CCC(NC(=O)c3ccc(-c4cccc(Cl)c4Cl)cc3)CC1)C2 : 100
CCN(CC)CCNc1ccnc2[nH]c3ccc(C)cc3c12 : 100
S=C(NCCCCCN1CCC(c2c[nH]c3ccccc23)CC1)Nc1cccc(I)c1 : 99
O=C(/C=C/c1ccc(Cl)c(Cl)c1)NCCCCCN1CCC(NC(=O)Nc2ccc(Cl)cc2F)CC1 : 100

Problem: // lookup Inhibition | system=Plasmodium falciparum | key= CCCCCCNC(=O)C1Cc2c([nH]c3ccc(F)cc23)C2(CCN(Cc3ccccc3)CC2)N1 (centres undefined)
Solution: 97

Problem: // lookup Inhibition | system=Plasmodium falciparum | key= `COc1cc(C=NNc2cc(C)nc3c(OC)cccc23)cc(OC)c1OC`
Solution: 94

Problem: // lookup Inhibition | system=Plasmodium falciparum | key= `Cc1cc(=O)c2cc(Oc3ccc(OC(F)(F)F)cc3)ccc2[nH]1`
Solution: 86

Problem: // lookup Inhibition | system=Plasmodium falciparum | key= `N#Cc1cccc(NC(=O)Nc2cccc(-c3cccc(-c4nc5cc(C(F)(F)F)ccc5[nH]4)c3)c2)c1`
Solution: 100

====

Inhibition overview
Tested on: HepG2
measurement-protocol: GSK_TCMDC: Percent inhibition of human HepG2 cell line. Test compounds present at 10uM.
Assay type: functional
Your answer should be a plain number; it is taken to be in %.

Cc1cc(-c2c[nH]c3ncc(-c4cccc5ncccc45)cc23)ccc1C(=O)O.O=C(O)C(F)(F)F : 31

Problem: // lookup Inhibition | system=HepG2 | key= `CCCCCCOc1ccc(C(=O)N[C@H]2CCN(CCCCCNC(=O)/C=C/c3ccc(Cl)c(Cl)c3)C2)cc1`
Solution: 10

Problem: // lookup Inhibition | system=HepG2 | key= `CN1CCN(CCCN(Cc2csc(-c3ccc(CNCc4ccccc4)cc3)n2)S(=O)(=O)c2ccccc2)CC1.O=C(O)C(F)(F)F`
Solution: 17

Problem: // lookup Inhibition | system=HepG2 | key= C=C[C@H]1CN(CCCCCCC)CC[C@H]1CC(O)Cc1ccnc2cc(O)c(OC)cc12.O=C(O)C(=O)O (some centres undefined)
Solution: 7

====

Tested on: Plasmodium falciparum
measurement-protocol: GSK_TCMDC: Inhibition of Plasmodium falciparum Dd2 in whole red blood cells, using parasite LDH activity as an index of growth. Test compounds present at 2uM
Assay type: functional
Inhibition overview
Your answer should be a plain number; it is taken to be in %.

These solved cases illustrate the format of a correct answer.
COc1cccc2c(NCCNc3ccnc4c(OC)cccc34)ccnc12.Cl : 86
c1ccc(COc2ccc(Cn3ccc(-c4ccc(-n5ccnc5)cc4)n3)cc2)cc1.c1ccc(COc2ccc(Cn3nccc3-c3ccc(-n4ccnc4)cc3)cc2)cc1 : 67
COc1ccc(-c2cccc(NC(=O)c3cccc(Cl)c3)c2)cc1CN1CCCN(C)CC1.O=C(O)C(F)(F)F : 99
COC(=O)c1c(C#N)c(OC)cc(O)c1CSC[C@@H](CN1CCCCC1)Nc1nc(-c2ccc([N+](=O)[O-])cc2)cs1 : 77

Problem: Record request: Inhibition value, item `COc1cc2c(cc1S(=O)(=O)c1ccc(NC(=O)c3cccc(C(F)(F)F)c3)cc1)CCN(C)CC2`
Solution: 25

Problem: Record request: Inhibition value, item `CCCCCCN1CCCN(Cc2ccc(C(=O)Nc3ccc(C(C)(C)C)cc3)cc2)CC1.O=C(O)C(F)(F)F`
Solution: 32

Problem: Record request: Inhibition value, item CC(=O)O.C[C@H](NC(=O)[C@H](Cc1ccccc1)NC(=O)OC(C)(C)C)C(=O)N[C@@H](CC1CCCCC1)C(O)CN (some centres not stated)
Solution: 64

====

System: HepG2
measurement-protocol: GSK_TCMDC: Percent inhibition of human HepG2 cell line. Test compounds present at 10uM.
Assay type: functional
recorded-metric: Inhibition (%)
Your answer should be a plain number; it is taken to be in %.

Problem: Record request: Inhibition value, item O=C(Nc1cccc(C(F)(F)F)c1)c1cccc(S(=O)(=O)NCC2CCCN(CC3CCCCC3)C2)c1.O=C(O)C(F)(F)F (centres undefined)
Solution: 17

Problem: Record request: Inhibition value, item `c1ccc2[nH]c(Nc3ccc(Nc4nc5ccccc5[nH]4)cc3)nc2c1`
Solution: 0

Problem: Record request: Inhibition value, item `CC(=O)Nc1ccc(CN2CCC(NC(=O)c3ccc(-c4ccc(N(C)C)cc4)s3)CC2)cc1.O=C(O)C(F)(F)F`
Solution: 20

Problem: Record request: Inhibition value, item O=C(NC(CCCN1CCC(c2ccccc2)CC1)c1ccc(Cl)c(Cl)c1)c1cc(C(F)(F)F)cc(C(F)(F)F)c1 (centres undefined)
Solution: 33

====

Test system: Plasmodium falciparum
measurement-protocol: GSK_TCMDC: Inhibition of Plasmodium falciparum 3D7 in whole red blood cells, using parasite LDH activity as an index of growth. Test compounds present at 2uM
Format: functional
Inhibition overview
Your answer should be a plain number; it is taken to be in %.

These solved cases illustrate the format of a correct answer.
Cc1cc(-c2cc(Cl)ccc2Cl)no1 : 96
O=C(Nc1cccc(-c2cccc(F)c2)c1)C1CCN(Cc2ccc(O)cc2)CC1 : 87
NC(=O)c1cc2nc(Nc3ccc(F)cc3)nc(Nc3ccc(S(N)(=O)=O)cc3)c2[nH]1.O=CO : 100

Problem: Record request: Inhibition value, item CN(c1ccc(NC(=O)c2cccc(F)c2)cc1)C1CCCN(Cc2cccc(O)c2)C1.O=C(O)C(F)(F)F (stereo not given)
Solution: 85

Problem: Record request: Inhibition value, item `COc1ccc2nccc([C@@H](O)CN3CCC(NCc4nc5c(OCc6ccccc6)cccc5[nH]4)CC3)c2c1.O=C(O)C(=O)O`
Solution: 100

Problem: Record request: Inhibition value, item `Br.CC1(C)NC(N)=NC(=N)N1OCc1cccs1`
Solution: 93

Problem: Record request: Inhibition value, item `Cc1nc(NCc2ccccc2)cc(Nc2cc(NCc3ccccc3)nc(C)n2)n1`
Solution: 90

Problem: Record request: Inhibition value, item CCCCCCC(C)c1cc(O)c2c(c1)OC(C)(C)C=C2c1ccncc1 (stereo not given)
Solution: 98

Problem: Record request: Inhibition value, item `Cc1cccc2nc(-c3ccc(-c4ccc(CNCc5cccc(N)c5)cc4)s3)[nH]c12.O=C(O)C(F)(F)F`
Solution: 100

Problem: Record request: Inhibition value, item `CN1C(C)(C)CC(NC(=O)c2ccc(-c3cc4cc(Cl)c(Cl)cc4[nH]3)o2)CC1(C)C`
Solution: 100

====

System: Plasmodium falciparum
measurement-protocol: GSK_TCMDC: Inhibition of Plasmodium falciparum 3D7 in whole red blood cells, using parasite LDH activity as an index of growth. Test compounds present at 2uM
Type: functional
recorded-metric: Inhibition (%)
Your answer should be a plain number; it is taken to be in %.

These solved cases illustrate the format of a correct answer.
COc1ccc(Nc2ncc3c(-c4cccc(NC(=O)Cc5ccncc5)c4)c[nH]c3n2)cc1OC : 99
COc1ccc2nccc([C@@H](O)CN3CCC(NC(=O)C(=Cc4ccc(C#N)cc4)c4ccc(-c5ccccc5)cc4)CC3)c2c1 : 100
COc1cccc(OC2CCN(C(=O)c3ccc(-c4ccc(N5CCCC5=O)cc4C)cc3)CC2)c1 : 85
COc1ccc(Cl)cc1NC(=O)CN(C)C(=O)c1cnn(-c2ccccc2)n1 : 100

The record that follows has no Inhibition shown yet.
Problem: // lookup Inhibition | system=Plasmodium falciparum | key= CCN(CC(C)O)C(=O)c1ccc(-c2cccc(-c3nc4cccc(C)c4[nH]3)c2)cc1 (stereo not given)
Solution: 100
